experiment: Solubility in water; type: physicochemical; conditions: 25° C., read-out: solubility in H2O
readout: solubility

Exam item: Look up solubility: Cl.NCCCC[C@H](N)C(=O)O [lysine HCl, lysine monohydrochloride]
Marked response: 500 to 600 mg/mL
